# system-under-test: active hMMP-9(cat)_His6 (UniProt P14780 107-449)
# Sequence (P14780 107-449): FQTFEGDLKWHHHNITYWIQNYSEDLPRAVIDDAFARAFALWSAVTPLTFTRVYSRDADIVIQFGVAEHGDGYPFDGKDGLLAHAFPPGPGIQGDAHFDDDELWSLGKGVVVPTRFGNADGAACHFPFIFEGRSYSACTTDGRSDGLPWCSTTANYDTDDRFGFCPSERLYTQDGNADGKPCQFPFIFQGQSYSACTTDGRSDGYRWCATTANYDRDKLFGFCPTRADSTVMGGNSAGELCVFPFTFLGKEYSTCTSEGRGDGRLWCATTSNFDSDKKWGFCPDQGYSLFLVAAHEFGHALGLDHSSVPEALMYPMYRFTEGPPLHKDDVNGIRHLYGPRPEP
# procedure-text: enzyme inhibition; substrate peptide
attribute-measured: pKi
Hey, just a heads up that pKi is the negative log base 10 of the concentration in molar.

Answered examples (3):
{"binder": "active MMP-9-binding peptide M91004 (designed binder) GSGMKETAAAKFERQHMDSPDLGTDDDDKAMADIGSANSDPQFGLFSKYRTPNCRQRKGPSCQMAFQPVCGSDMSTYANECTLCMKIREGGHNIKIIRNGPCGASAAA", "pKi": 8.92}
{"binder": "active MMP-9-binding peptide M91014 (designed binder) GSGMKETAAAKFERQHMDSPDLGTDDDDKAMADIGSANSDPQFGLFSKYRTPNCVMYKYAQCSHKYKPVCGSDMSTYANECTLCMKIREGGHNIKIIRNGPCGASAAA", "pKi": 9.35}
{"binder": "active MMP-9-binding peptide M91012 (designed binder) GSGMKETAAAKFERQHMDSPDLGTDDDDKAMADIGSANSDPQFGLFSKYRTPNCRVRGGPSCQMSFNPVCGSDMSTYANECTLCMKIREGGHNIKIIRNGPCGASAAA", "pKi": 8.68}

Kindly review the next binder as well.
Which measured pKi value corresponds to active MMP-9-binding peptide M91002 (designed binder) GSGMKETAAAKFERQHMDSPDLGTDDDDKAMADIGSANSDPQFGLFSKYRTPNCRTGRGPACQMGFQPVCGSDMSTYANECTLCMKIREGGHNIKIIRNGPCGASAAA ?
8.64
